# method_notes: Tanguay_ZF_120hpf_PIG_legacy: (Legacy) Oregon State University Tanguay Lab 120 Hour Post-fertilization zebrafish Assay for Pigmentation Malformation (AID 2283650);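 further: dechorionated Tropical 5D zebrafish embryos exposed singly from 6 to 120 hpf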
Inconclusive results are not listed. The source made the active and inactive calls. How the source made its calls: active means hit-call score of the fitted dose curve at least 0.9, where 1 is the maximum; inconclusive means response in the unintended direction; inactive means score below 0.9.
Possible outcomes: t for active, f for inactive

# compound, group_label
rows = [
    ("NC(=O)N(O)[C@@H]1C=C[C@H](Oc2cccc(Oc3ccc(F)cc3)c2)C1", "f"),
    ("CCCCOCCO", "f"),
    ("CCc1nn(C2CCCCC2)c2cc(C3(C#N)CCC(C(=O)O)CC3)ccc12 (stereo unspecified)", "f"),
    ("CC(=O)NC1(c2cccc(F)c2)CCN(CC[C@@]2(c3ccc(Cl)c(Cl)c3)CN(c3ccccc3)C(=O)CO2)CC1", "f"),
    ("O=[N+]([O-])c1ccc(O)cc1", "f"),
    ("Cc1cc(CCN2CCN(c3nsc4ccccc34)CC2)cc2c1NC(=O)CC2(C)C", "t"),
    ("CN1CCN(c2ccccc2/C=C2\\SCCN(c3ccc(Cl)c(Cl)c3)C2=O)CC1", "f"),
    ("CC1=C(/C=C/C(C)=C/C=C/C(C)=C/C(=O)O)C(C)(C)CCC1", "t"),
    ("Nc1cccc2c(N)cccc12", "f"),
    ("O=C(OCCOCCOC(=O)c1ccccc1)c1ccccc1", "f"),
    ("CCC(C)(C)C1CCC(O)CC1 (stereo unspecified)", "f"),
]

---

# Read-out: Macrophage colony-stimulating factor (MCSF), CSF1 (gene 1435)
# method_notes: BSK_LPS_MCSF: BioMAP Diversity Plus: LPS Assay for Macrophage colony-stimulating factor (MCSF) Biomarker Activity (AID 2283083)
# experimental_context: primary human HUVEC with PBMC; actives raise or lower the signal
Active and inactive are the calls of the source. Rule for the calls: active = hit-call score of the fitted dose curve at least 0.9, where 1 is the maximum; inactive = score below 0.9.
Possible outcomes: true (1) = active, false (0) = inactive

# compound, group_label
records = [
    ("O=[N+]([O-])c1ccc(O)cc1", "false (0)"),
    ("ClC1=C(Cl)C(Cl)(Cl)C(Cl)=C1Cl", "true (1)"),
    ("N#C[C@@H]1CC(F)(F)CN1C(=O)CNC1CC2CCC(C1)N2c1ncccn1 (stereo partly drawn)", "true (1)"),
]

---

# Read-out: Interleukin-1 alpha (IL1a), IL1A (gene 3552)
# method_notes: BSK_KF3CT_IL1a: BioMAP Diversity Plus: KF3CT Assay for Interleukin-1 alpha (IL1a) Biomarker Activity (AID 2283070)
# experimental_context: primary human keratinocytes with fibroblasts; actives raise or lower the signal
Active and inactive are the calls of the source. Rule for the calls: active = hit-call score of the fitted dose curve at least 0.9, where 1 is the maximum; inactive = score below 0.9.
Possible outcomes: active, inactive

# molecule, group_label
rows = [
    ("Oc1cc2ccccc2c2ccccc12", "active"),
    ("CCCOc1sc(C(=O)N2CCC(c3cc(CN)ccc3F)CC2)c(C)c1Br", "active"),
    ("Nc1cccc2c(N)cccc12", "inactive"),
    ("CC(C)(C)c1cc(C(C)(C)C)c(O)c(C(C)(C)C)c1", "inactive"),
    ("N#C[C@@H]1CC(F)(F)CN1C(=O)CNC1CC2CCC(C1)N2c1ncccn1 (stereo partly specified)", "inactive"),
    ("CC#C[C@]1(O)CC[C@H]2[C@@H]3CCC4=CC(=O)CCC4=C3[C@@H](c3ccc(N(C)C)cc3)C[C@@]21C", "inactive"),
    ("CC(C)(C)CC(C)(C)c1ccc(O)c(-n2nc3ccccc3n2)c1", "inactive"),
    ("CCc1ccc(CCOc2ccc(CC3SC(=O)NC3=O)cc2)nc1 (stereo unspecified)", "inactive"),
    ("CCc1nn(C2CCCCC2)c2cc(C3(C#N)CCC(C(=O)O)CC3)ccc12 (stereo unspecified)", "inactive"),
    ("Oc1cccc(O)c1", "inactive"),
    ("CCN(CC)CCNc1ccc(CNC=O)c2sc3ccc(OC)cc3c(=O)c12", "active"),
]
